Subject Of Test: JAK1 (Homo sapiens)
Sequence (P23458 whole entry, species assumed): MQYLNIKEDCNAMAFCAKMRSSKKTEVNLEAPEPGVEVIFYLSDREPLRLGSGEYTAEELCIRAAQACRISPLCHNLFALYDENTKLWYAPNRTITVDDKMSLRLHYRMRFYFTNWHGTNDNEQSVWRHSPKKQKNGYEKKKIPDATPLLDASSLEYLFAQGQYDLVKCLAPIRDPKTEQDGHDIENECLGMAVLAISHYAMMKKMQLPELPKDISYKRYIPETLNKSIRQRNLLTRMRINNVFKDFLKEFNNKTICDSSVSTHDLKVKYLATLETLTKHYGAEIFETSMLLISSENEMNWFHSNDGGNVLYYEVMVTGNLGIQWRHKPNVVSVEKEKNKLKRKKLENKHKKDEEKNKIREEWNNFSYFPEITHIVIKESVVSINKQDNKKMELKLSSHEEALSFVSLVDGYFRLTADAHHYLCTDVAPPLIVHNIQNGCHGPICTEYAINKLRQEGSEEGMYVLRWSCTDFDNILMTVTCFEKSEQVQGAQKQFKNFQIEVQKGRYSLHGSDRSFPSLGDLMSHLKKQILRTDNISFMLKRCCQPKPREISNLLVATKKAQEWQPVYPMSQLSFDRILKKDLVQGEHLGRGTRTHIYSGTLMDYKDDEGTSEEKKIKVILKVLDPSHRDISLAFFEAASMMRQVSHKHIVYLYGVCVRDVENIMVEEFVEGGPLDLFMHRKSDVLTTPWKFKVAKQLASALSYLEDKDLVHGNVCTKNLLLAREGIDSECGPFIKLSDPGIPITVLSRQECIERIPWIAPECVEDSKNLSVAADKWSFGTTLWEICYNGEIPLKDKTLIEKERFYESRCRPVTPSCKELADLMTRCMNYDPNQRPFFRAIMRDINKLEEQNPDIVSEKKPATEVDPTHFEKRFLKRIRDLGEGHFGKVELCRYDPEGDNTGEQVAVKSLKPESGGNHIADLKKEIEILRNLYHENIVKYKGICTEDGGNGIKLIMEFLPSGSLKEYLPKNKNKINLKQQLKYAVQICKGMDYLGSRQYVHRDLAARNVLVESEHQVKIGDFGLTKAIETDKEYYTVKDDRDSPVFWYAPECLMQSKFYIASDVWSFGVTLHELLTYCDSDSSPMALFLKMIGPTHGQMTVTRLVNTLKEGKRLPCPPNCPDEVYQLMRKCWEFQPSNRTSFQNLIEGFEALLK
Value Type: IC50

Solved entries:
query: Record Cc1ncc(-c2nc3cnc4[nH]ccc4c3n2C2CCC(C#N)CC2)s1 (stereo in doubt) : what is its IC50 with JAK1 (Homo sapiens)?
result: 10 to 100 nM

query: Record N#C[C@H]1CC[C@H](n2c(-c3ccc(CO)o3)nc3cnc4[nH]ccc4c32)CC1 (stereo in doubt) : what is its IC50 with JAK1 (Homo sapiens)?
result: 10 to 100 nM

query: Record C[C@@H](O)c1nc2cnc3[nH]ncc3c2n1[C@H]1CCN(CCCC(F)(F)F)C1 : what is its IC50 with JAK1 (Homo sapiens)?
result: 10 to 100 nM

query: Record Cc1ccc(-c2nc3cnc4[nH]ccc4c3n2C2CCC(C#N)CC2)s1 (stereo in doubt) : what is its IC50 with JAK1 (Homo sapiens)?
result: 10 to 100 nM

query: Record C[C@@H](O)c1nc2cnc3[nH]ncc3c2n1[C@H]1CCN(CCCC#N)C1 : what is its IC50 with JAK1 (Homo sapiens)?
result: < 10 nM

Others:
query: Record CCCCS(=O)(=O)N1CCC(n2c([C@@H](C)O)nc3cnc4[nH]ccc4c32)C1 (stereo partly drawn) : what is its IC50 with JAK1 (Homo sapiens)?
result: 10 to 100 nM

query: Record C[C@@H](O)c1nc2cnc3[nH]ccc3c2n1[C@@H]1CN(CCCC(F)(F)F)CC12CC2 : what is its IC50 with JAK1 (Homo sapiens)?
result: 10 to 100 nM

query: Record C[C@@H](O)c1nc2cnc3[nH]ccc3c2n1[C@H]1CCN(CCCCC#N)C1 : what is its IC50 with JAK1 (Homo sapiens)?
result: < 10 nM

query: Record C[C@@H](O)c1nc2cnc3[nH]ccc3c2n1C1CCN(C(=O)c2ccc(F)cc2)C1 (stereo partly drawn) : what is its IC50 with JAK1 (Homo sapiens)?
result: 100 to 1000 nM

query: Record CS(=O)(=O)c1ccc(C2Nc3cnc4[nH]ccc4c3N2C2CCC(C#N)CC2)cc1 (stereo in doubt) : what is its IC50 with JAK1 (Homo sapiens)?
result: 10 to 100 nM

query: Record CCCS(=O)(=O)N1CC(CC#N)(n2cc(-n3c(-c4ccc(CO)o4)nc4cnc5[nH]ccc5c43)cn2)C1 : what is its IC50 with JAK1 (Homo sapiens)?
result: 100 to 1000 nM

query: Record C[C@@H](O)c1nc2cnc3[nH]ccc3c2n1[C@@H]1CN(CCCC(F)(F)F)CC1F (stereo partly drawn) : what is its IC50 with JAK1 (Homo sapiens)?
result: < 10 nM

query: Record CS(=O)(=O)c1ccc(C2Nc3cnc4[nH]ccc4c3N2c2cnn(CCC#N)c2)cc1 (stereo not drawn) : what is its IC50 with JAK1 (Homo sapiens)?
result: 10 to 100 nM

====

Lab note: IC50 readings collected with JAK1 (Homo sapiens) for the following compounds.

Solved entries:
query: Requested field: IC50. Item: O=S(=O)(C1CC1)N1CCC(n2c(-c3ccc(CO)o3)nc3cnc4[nH]ccc4c32)C1 (centres unmarked)
result: 10 to 100 nM

query: Requested field: IC50. Item: C[C@@H](O)c1nc2cnc3[nH]ccc3c2n1[C@H]1CCN(CC(F)(F)C(F)(F)C(F)(F)F)C1
result: < 10 nM

query: Requested field: IC50. Item: Cc1ccc(-c2nc3cnc4[nH]ccc4c3n2C2CCC(C#N)CC2)o1 (stereo in doubt)
result: 10 to 100 nM

query: Requested field: IC50. Item: CCS(=O)(=O)N1CCC(n2c([C@@H](C)O)nc3cnc4[nH]ccc4c32)C1 (some centres unmarked)
result: 10 to 100 nM

query: Requested field: IC50. Item: CSc1ccc(-c2nc3cnc4[nH]ccc4c3n2C2CCC(C#N)CC2)cc1 (stereo in doubt)
result: 100 to 1000 nM

query: Requested field: IC50. Item: C[C@@H](O)c1nc2cnc3[nH]ccc3c2n1C1CCN(S(=O)(=O)c2ccc(OC(F)(F)F)cc2)C1 (some centres unmarked)
result: 10 to 100 nM

query: Requested field: IC50. Item: CCS(=O)(=O)N1CC(CC#N)(n2cc(-n3c(-c4cccs4)nc4cnc5[nH]ccc5c43)cn2)C1
result: 100 to 1000 nM

Next compound, please.
query: Requested field: IC50. Item: N#CCCn1cc(-n2c(-c3ccc(CO)o3)nc3cnc4[nH]ccc4c32)cn1
result: 10 to 100 nM
